Test: Oral bioavailability in rat
Format: ADME, organism-based
Settings: in vivo
property: bioavailability (%)
Numeric answer only, unit % assumed.

// lookup bioavailability for CC(C)(C)NC(=O)c1nn(-c2ccc(F)cc2F)c2c1[C@H]1CC[C@@H]2C1
48

###

Species on record: Homo sapiens
Test: Selectivity ratio of Ki for human CB1 receptor to Ki for human CB2 receptor
Would you kindly list Ratio Ki for each of these compounds?
Just the number, please, no unit after it.

// lookup Ratio Ki for O=C(Nc1sc2c(c1C(=O)N1CCC1)CC1CCC2O1)c1c(F)cccc1C(F)(F)F (stereo not given)
10

What do we get for CC1OCc2sc(NC(=O)C3C(C)(C)C3(C)C)c(C(=O)N3CC(F)(F)C3)c21 (stereo not given) ?
10

What do we get for CCCCCCC(C)(C)c1cc(O)c2c(c1)OC(C)(C)[C@@H]1CC=C(C(=O)O)C[C@@H]21 [LENABASUM] ?
0.19

What do we get for CCCCCCC(C)(C)c1cc(O)c2c(c1)OC(C)(C)C1CCC(=O)CC21 (stereo not given) ?
1.2

###

Would you kindly list Ratio Ki for each of these compounds?
Organism: Homo sapiens
Assay: Selectivity ratio of Ki for human CB1 receptor to Ki for human CB2 receptor

// lookup Ratio Ki for CC(NC(=O)c1nc(N2CCOCC2)n2ccccc12)C(C)(C)C (stereo unspecified)
> 3100

What do we get for C[C@H](NS(=O)(=O)/C=C/c1n[nH]c2c1CCCC[C@@H]2Cc1cccc(F)c1)c1ccccc1 ?
> 550

What do we get for CCCCCCC(C)(C)c1cc(OC)c2c(c1)OC(C)(C)[C@@H]1CC=C(C)C[C@@H]21 ?
> 790

What do we get for C=C1CC[C@@H]2[C@@H](C1)c1c(OC)cc(C(C)(C)CCCCCC)cc1OC2(C)C ?
> 1000

What do we get for Cn1c(C2(C)CC2)c/c(=N\C(=O)c2cc(C(F)(F)F)ccc2OCC(C)(C)O)n1C[C@H]1CCCO1 ?
> 57000

What do we get for CC1(Cc2ccccc2)COc2cc(C(=O)N3CCCCC3)ccc21 (stereo unspecified) ?
> 23
